Just for reference, patent US20240287080A1 is where these values come from.

Molecular target: Pol theta (1-899) (Homo sapiens, UniProt O75417)
Construct: Pol theta (1-899) (5 nM) in assay buffer
Sequence (O75417 1-899): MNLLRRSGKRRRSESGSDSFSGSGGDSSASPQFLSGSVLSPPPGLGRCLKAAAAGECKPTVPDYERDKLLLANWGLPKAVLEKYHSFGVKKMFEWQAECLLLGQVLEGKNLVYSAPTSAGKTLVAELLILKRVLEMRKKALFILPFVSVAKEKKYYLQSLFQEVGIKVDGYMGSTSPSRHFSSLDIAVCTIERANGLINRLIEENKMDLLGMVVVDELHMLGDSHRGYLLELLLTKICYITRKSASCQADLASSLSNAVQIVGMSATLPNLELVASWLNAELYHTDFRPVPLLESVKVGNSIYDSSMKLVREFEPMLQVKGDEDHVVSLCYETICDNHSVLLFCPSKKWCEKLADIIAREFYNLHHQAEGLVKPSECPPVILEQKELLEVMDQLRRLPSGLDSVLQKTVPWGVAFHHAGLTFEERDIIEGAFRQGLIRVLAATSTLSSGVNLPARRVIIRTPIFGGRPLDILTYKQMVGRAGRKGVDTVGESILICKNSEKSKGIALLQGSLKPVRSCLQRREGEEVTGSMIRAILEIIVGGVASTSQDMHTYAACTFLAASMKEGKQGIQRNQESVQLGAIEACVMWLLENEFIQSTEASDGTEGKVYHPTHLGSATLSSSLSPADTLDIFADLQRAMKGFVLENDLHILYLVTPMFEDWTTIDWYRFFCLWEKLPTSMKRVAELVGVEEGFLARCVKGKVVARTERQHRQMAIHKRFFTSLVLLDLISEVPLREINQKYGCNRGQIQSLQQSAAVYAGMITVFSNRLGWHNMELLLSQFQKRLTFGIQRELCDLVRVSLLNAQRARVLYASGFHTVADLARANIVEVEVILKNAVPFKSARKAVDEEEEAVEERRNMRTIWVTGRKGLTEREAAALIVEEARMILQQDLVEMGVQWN
Test: Pol theta ATPase activity, NADH oxidation-coupled enzymatic assay (ATPase NADH coupling: Standard Screening: hPolQ)
Assay type: biochemical
Conditions: Table 5; Pol theta (1-899) 5 nM, ATP, dT50 ssDNA
pIC50: −log10 of the molar value.

{"COMPOUND": "COc1cnc(Cl)cc1-c1cc(C)ncc1C(=O)Nc1nnc(O[C@H]2CCC[C@@H](O)C2)s1 (single isomer, unassigned)", "pIC50": "≥ 6.70"}
{"COMPOUND": "COc1cnc(Cl)cc1-c1cc(C)ncc1C(=O)Nc1nnc(OC2CC3(COC3)C2)s1", "pIC50": "≥ 6.70"}
{"COMPOUND": "Cc1cc(-c2cc(Cl)ncc2OC(F)F)c(C(=O)Nc2nnc(O[C@H]3CC[C@](C)(O)CC3)s2)cn1 (single isomer, unassigned)", "pIC50": "≥ 6.70"}
{"COMPOUND": "COc1cnc(Cl)cc1-c1cc(C)ncc1C(=O)Nc1nnc(O[C@H]2CC[C@](C)(O)CC2)s1 (single isomer, unassigned)", "pIC50": "≥ 6.70"}
{"COMPOUND": "COc1cnc(C)c(F)c1-c1cc(C)ncc1C(=O)Nc1nnc(OC2COC2)s1", "pIC50": "≥ 6.70"}
{"COMPOUND": "COc1cnc(Cl)cc1-c1cc(C)ncc1C(=O)Nc1nnc(O[C@@H]2CO[C@H](C)C2)s1 (single isomer, unassigned)", "pIC50": "≥ 6.70"}
{"COMPOUND": "COc1cnc(Cl)cc1-c1cc(C)ncc1C(=O)Nc1nnc(O[C@]2(C)CCOC2)s1 (single isomer, unassigned)", "pIC50": "6.30 to 6.70"}
{"COMPOUND": "COc1cnc(Cl)cc1-c1cc(C)ncc1C(=O)Nc1nnc(O[C@@H]2CCC23COC3)s1 (single isomer, unassigned)", "pIC50": "≥ 6.70"}
{"COMPOUND": "Cc1cc(-c2cc(Cl)ncc2OC(F)F)c(C(=O)Nc2nnc(O[C@@H]3COC4(CC4)C3)s2)cn1 (single isomer, unassigned)", "pIC50": "≥ 6.70"}
{"COMPOUND": "COc1cnc(Cl)cc1-c1cc(C)ncc1C(=O)Nc1nnc(O[C@H]2CCC[C@](C)(O)C2)s1 (single isomer, unassigned) [Example 181]", "pIC50": "≥ 6.70"}
{"COMPOUND": "COc1cnc(Cl)cc1-c1cc(C)ncc1C(=O)Nc1nnc(OC2CCCC2OC)s1 (stereo not drawn)", "pIC50": "≥ 6.70"}
{"COMPOUND": "COc1cnc(Cl)c(F)c1-c1cc(C)ncc1C(=O)Nc1nnc(O[C@@H]2CCOC2)s1", "pIC50": "≥ 6.70"}
{"COMPOUND": "COc1nnc(NC(=O)c2cnc(OC3CC3)cc2-c2cc(Cl)ncc2OC)s1", "pIC50": "6.00 to 6.30"}
{"COMPOUND": "COc1cnc(Br)cc1-c1cc(C)ncc1C(=O)Nc1nnc(O[C@H]2CC[C@H](O)CC2)s1", "pIC50": "≥ 6.70"}
{"COMPOUND": "COc1cnc(Cl)cc1-c1cc(C)ncc1C(=O)Nc1nnc(O[C@@H]2COC3(CCCC3)C2)s1 (single isomer, unassigned)", "pIC50": "≥ 6.70"}
{"COMPOUND": "COc1cnc(Cl)cc1-c1cc(C)ncc1C(=O)Nc1nnc(O[C@H]2CC[C@@H](C(C)(C)O)CC2)s1", "pIC50": "≥ 6.70"}
{"COMPOUND": "COc1cnc(Cl)cc1-c1cc(C)ncc1C(=O)Nc1nnc(OC2CC(C)(O)C2)s1 (mixture of isomers)", "pIC50": "≥ 6.70"}
{"COMPOUND": "COc1nnc(NC(=O)c2cnc(C)cc2-c2ccnc(Cl)c2)s1", "pIC50": "6.30 to 6.70"}
{"COMPOUND": "COc1nnc(NC(=O)c2cnc(C)cc2-c2ccncc2OC)s1", "pIC50": "5.00 to 6.00"}
{"COMPOUND": "COc1cnc(Cl)cc1-c1cc(C)ncc1C(=O)Nc1nnc(O[C@H]2C[C@H](OC)C2)s1 (single isomer, unassigned)", "pIC50": "≥ 6.70"}
{"COMPOUND": "COc1cnc(C)c(F)c1-c1cc(C)ncc1C(=O)Nc1nnc(O[C@H]2CC[C@@](C)(O)CC2)s1 (single isomer, unassigned)", "pIC50": "≥ 6.70"}
